Just for reference, the supplement of paper PMC12764529 is where these values come from.

Recorded folding stability dG unfold by entry
assay: folding stability dG unfold (combined trypsin and chymotrypsin); higher = more stable
Report as a plain number; the unit kcal/mol is understood.

Sequence Code | Readout Unit | folding stability dG unfold
SAGGSAGGSMTITYDPVSNTYTVNLSLEGGTKTYTVPSLEALKATLKAEGLPWGPPPITTVSASAGGSAGGS [r12_834_JUSTAS] | kcal/mol | 4.96
SAGGMKVTITVTDPEAFRAAVEALPEVPPEQVSTSPLPGNSYTATFPSEKAVELLKAAGVPITEIAASAGGS [r16_381_JUSTAS] | kcal/mol | 0.568
SAGGSMIEVERDPNDPNRYRARLPVIEENPPEPKLVYVDVYVDPENGLVYARAVTEDGGEAEFRFESAGGSA [r2_428_TrMRF] | kcal/mol | 0.786

Here is another sequence to look at.
Per the records, this sequence ( SAGGSAGGSPVPVKVVVKLPSSDKTIELTLYPPDVSPDSVVTVDLGGPAIDVKLLPGDVLELSPSAGGSAGG [r6_461_JUSTAS] ) has folding stability dG unfold equal to 0.323

* * *

test: folding stability dG unfold from chymotrypsin proteolysis; higher = more stable
Recorded folding stability dG unfold by entry
Answer with the value and then the unit.

Below: 10 sequences and their reported folding stability dG unfold.
Sequence Code | folding stability dG unfold
MKIRVEITVRNPDGEELKIEIVLSLEELEELRKEGKPLTLEELKALIEERARKLAEELDLEVEIKIVEIEPS [r1_174_TrROS_Hall] | 5.06 kcal/mol
SAGGSAGGSAGGPKVEIVEVTVEGDKVTIRVKNEETGEWVTLEVTLKDLPKVTFVLKPKSAGGSAGGSAGGS [r10_655_TrROS_Hall] | 1.16 kcal/mol
SAEEELRKALENMSDEELEALLRAAAPPPKTVTIRLSEEELEKLAQELADEYNVTVTVEVDGKTLTLTLSAG [r14_7_TrROS_Hall] | 1.74 kcal/mol
SAGGNIEIEIPIPKEDLKDNDFEEAKEYVREYVRMIAREQGLPPGFPIKDIDVQPHPNYYMVKIEIPSAGGS [r16_368_TrROS] | 0.868 kcal/mol
SAGGSAGGSTLVFAPDDTLYLRIYLPETGGWRYIEVPAGQADSVARPLGAVRLEAYRRDEPVPSAGGSAGGS [r12_294_TrMRF] | 0.83 kcal/mol
ENYVAIEITMEMPNPDGMEMKFDLKIIKLDPDDGKFAIEMSMEMENPNGKPYRHPMWFVIPADELKEFLEAS [r1_371_TrROS] | 4.12 kcal/mol
SMNIVEIEVEEKIIGDTTTITIPIKVNGPAVSEEEIKKIVEDIFKKKGLKINIKIEKDPNSGVITITIIESA [r9_717_JUSTAS] | 2.55 kcal/mol
SAGGSAGGSAGGSMPIVRIEVKHPDQKHTFFIPPDMPLEDIADELASQYPNVEVKIEPVSAGGSAGGSAGGS [r4_155_TrROS] | 1.33 kcal/mol
SAGGSAGGSAGGSMIVEEDPVGPEKVTTVTLPEKDKLVTVTETFLPDGSVVTTTTPVPSSAGGSAGGSAGGS [r4_332_JUSTAS] | 2 kcal/mol
SAGGSEKVKIEIPFRHPEDGEPIFPVRIEYEKPPNGDYKLDIEIDNFPPGMKPSPAAKDAIEEFIKSAGGSA [r2_7_TrROS] | 1.29 kcal/mol

Per the records, this sequence ( SAGGVVYYATFTIYDPKRKLPNGELAYEETPIYKKFDPKEIEKFIKELKDKLKKEGRKIKAEITKVLSAGGS [r8_10_JUSTAS] ) has folding stability dG unfold equal to 1.77 kcal/mol

Per the records, this sequence ( SAGGSAGGSAGGSTPSFTPVLELEFEFENDVVVRVRLYRLPDEDTYLLEVEVAPDSLKDSAGGSAGGSAGGS [r4_163_TrMRF] ) has folding stability dG unfold equal to 4.11 kcal/mol

Per the records, this sequence ( SAGGSKFEVEKLPDNTYRFKVPNENGETLEITVEKLPDGAILVTHPSNPKPVLFPASTTIEDLLKKSAGGSA [r2_338_TrMRF] ) has folding stability dG unfold equal to 2.22 kcal/mol

Per the records, this sequence ( SAGGSAGGMPLLALSYPVLKDGKLYRVLFLYSPDGTFLGPFYVSADLTEDIPPDTVVLVHPDALSAGGSAGG [r6_33_TrMRF] ) has folding stability dG unfold equal to 3.52 kcal/mol

* * *

assay: folding stability dG unfold from chymotrypsin proteolysis; higher = more stable
Assay Endpoint: folding stability dG unfold (kJ/mol)
Report as a plain number; the unit kJ/mol is understood.

Below: 5 sequences and their reported folding stability dG unfold.
Sequence Code | Endpoint Result
SNPISAVVPSPGGRYVLVVEYKDGSVEVYEFEGLSTAEEAKERALALLKESTEGEPREITRVVVLPAPPGSA [r9_1135_TrMRF] | 18
SAGGSAGGSAMKIVKITTTQLPNGTTKVTVTFSDGSTKTVTIPPNQPGKSAEEVAKKVLLESAGGSAGGSAG [r3_368_JUSTAS] | 14.1
SGMPTVTLNVTIEFERERLSFDPKTGKPRLELVKVTKPVTITGFFTSPEEAAAAAEAVRKALEADPEALASA [r9_77_JUSTAS] | 9.91
SAGGSAGGSAAKIVDINISVRRSPENGYWKIPITIRIKGPNGKEQEIDLTMVFKIPPGQPLFSAGGSAGGSA [r18_95_TrROS] | 12.1
SAGLKFSITKAEWENGYLTVKVMVTGPDGQSQPFTITIRIKPVPKPPPKMTEEKDPNGKKKWEYKDPDSAGG [r19_172_TrROS] | 10.9

Per the records, this sequence ( SAGGSAGGSKFKIVSIEVTVETNEDGSKTLTVKIRLEDGSEITITVPENATLEEVLKLLKELASAGGSAGGS [r12_1047_TrROS_Hall] ) has folding stability dG unfold equal to 18.5

Per the records, this sequence ( SAGGSSMVDIKPGLVTEIRVETLPNGERVYVVEIPLENGERAVVKISEKFKSEEEKLKAIYEAVSKSAGGSA [r2_347_JUSTAS] ) has folding stability dG unfold equal to 10.3

* * *

assay: folding stability dG unfold from trypsin proteolysis; higher = more stable
Assay Endpoint: folding stability dG unfold
Answer with the value and then the unit.

Per the records, this sequence ( SAGGGMMTLVTLEITIPKPPDPKTGKSRPLPLTLEFEVEADDPEALEERVEEELEKIGIPEEARKLLSAGGS [r16_40_JUSTAS] ) has folding stability dG unfold equal to 0.471 kcal/mol

Per the records, this sequence ( SAGGSAGGSASMTVRATLPNGEEIEFEADVIKADPGGDSVTVYLILPNGGEIPFEVELEEEESAGGSAGGSA [r18_163_TrMRF] ) has folding stability dG unfold equal to 0.37 kcal/mol

Per the records, this sequence ( SAGGSAGGSAGGMPLTLTSETVTVERDPTSNNVVTTTTTTYKLPNGTLVTVTTTTTSPTTSAGGSAGGSAGG [r7_267_JUSTAS] ) has folding stability dG unfold equal to 2.38 kcal/mol

Per the records, this sequence ( SANEKVTVEVKIRFYFRFPKGQPFPFDITVPVTVEYDPNDPDKAKEEAKEKAIDEAIDEFRERFGYPLPSAG [r14_117_TrROS] ) has folding stability dG unfold equal to 1.75 kcal/mol

Per the records, this sequence ( SAGGSASVLEEAIEEAKKLPPGSVVPLTVTVPTDGEPVVYEILITVHPGENTIEVEKKRKFSPERLSAGGSA [r15_724_JUSTAS] ) has folding stability dG unfold equal to -0.411 kcal/mol

Per the records, this sequence ( SAETVTFRVGDVEIVARRLPDGYVVVTEKVPEEYPEAELVLSLVRVYPDGTVEVESRLYRIDPETGVIGSAG [r14_724_TrMRF] ) has folding stability dG unfold equal to 2.12 kcal/mol

Per the records, this sequence ( SAGGSAGGSAGGSQELTIKIPPGEPDVRIFFPDGGEEHEIPPGDEREIELSPDKIAVQPSAGGSAGGSAGGS [r10_46_TrROS] ) has folding stability dG unfold equal to 0.763 kcal/mol

* * *

assay: folding stability dG unfold (combined trypsin and chymotrypsin); higher = more stable
Recorded folding stability dG unfold by entry
Report as a plain number; the unit kcal/mol is understood.

Sequence Code | Readout Unit | folding stability dG unfold
SAGGSAGGSAMTTVTSTTEIPPSALTVKTSVSTAPDGSLVETTTVVLPDGSVVTTTLSTVASAGGSAGGSAG [r3_7_JUSTAS] | kcal/mol | 1.11
SAGGSAGGSDDDDAKKAMEQMKPPPIPIKIQVKIEYDPSLGWLKVEIHFFGFGLRITGTIPIDSAGGSAGGS [r20_230_TrROS] | kcal/mol | 4.08
SASVTTLTFTVTYPGGETETFTVTVPNLTEEEAKALAEKLAEEIQEKSKKPGVKVEVSITRYPADDPALSAG [r14_207_JUSTAS] | kcal/mol | 4.2
SAEVELKPDEELEFEFPDSQVKISYVPGTGVITTTTTFTTPDGTVVYKTTTIKKEGKEVTSTTVSLAEASSA [r9_881_JUSTAS] | kcal/mol | 1.17

Per the records, this sequence ( TIVIENASVEQIKNAIKEAIKEGKEVKIIIKASPEEKEKIIEELKKLPEIKKVEKLPNGSIKITIKAKELKS [r1_324_TrROS_Hall] ) has folding stability dG unfold equal to 2.32

Per the records, this sequence ( SAGGSSMINLTITITVKDPSTGKVTTIPLNKKLTPEEIEELVKEIIEKIEKENPDKPIEVLKVEINSAGGSA [r2_59_JUSTAS] ) has folding stability dG unfold equal to 2.81

Per the records, this sequence ( SMLYRVTTVVVRGDRPLVIPVLADSLEAFLEEAREAIPPELREELPPDAVVRVFVEPVPAVVPEPGEPLPSA [r9_111_TrMRF] ) has folding stability dG unfold equal to 1.77

Per the records, this sequence ( VDPDDPEYQRFVYFVQELAKTIVEEHQEEGPTVDELYITVDPNNVKIEPVDMPPDEWEEHQKEGRPVIPIRS [r1_134_TrROS] ) has folding stability dG unfold equal to -0.0608

Per the records, this sequence ( SAGGMVVRTPDGSTVEITVTDPASGSPYRSTDPGGGVEAAIAAINASPAYPNATVSITRYDAGTASPASAGG [r13_914_JUSTAS] ) has folding stability dG unfold equal to -0.485

Per the records, this sequence ( SAGKKTIMIFIPGNMPLDTLKSALRNLPPNVEIHIMYPGQMQTITYDPDDIEIELPPGFPNFYIMIEVPSAG [r5_373_TrROS] ) has folding stability dG unfold equal to 2.72

Per the records, this sequence ( SAGGSAGGSAGGPPDLVKVRFIKVSVKLKEVKENPNGEKEMKLEMKIEEVEVTVRKDDLSAGGSAGGSAGGS [r10_524_TrROS_Hall] ) has folding stability dG unfold equal to 2.71

Per the records, this sequence ( SAGGSPVLKVEVFELEEDKLLLKIYFPKEEAGLTPEQKEALAKAIQELFPNTKAFTTDEELYIVVDSAGGSA [r2_256_TrMRF] ) has folding stability dG unfold equal to 2.37

Per the records, this sequence ( IETGEYDIEIELPAPNGYKVKVKFKFVKVDPENGKVYVEVELEVTLPGGKPIKLPLRLVMPAEEIKKFLESS [r1_371_TrMRF] ) has folding stability dG unfold equal to 4.64

Per the records, this sequence ( SAGGSAGGSMLEEKIKQVPKSEKATITIKVKNENGKWKVVTVEVTYIEGKNEYEVKITITPEPGSAGGSAGG [r6_545_JUSTAS] ) has folding stability dG unfold equal to 2.29
